Test Target: Tyrosinase (Agaricus bisporus)
Sequence (O42713 whole entry): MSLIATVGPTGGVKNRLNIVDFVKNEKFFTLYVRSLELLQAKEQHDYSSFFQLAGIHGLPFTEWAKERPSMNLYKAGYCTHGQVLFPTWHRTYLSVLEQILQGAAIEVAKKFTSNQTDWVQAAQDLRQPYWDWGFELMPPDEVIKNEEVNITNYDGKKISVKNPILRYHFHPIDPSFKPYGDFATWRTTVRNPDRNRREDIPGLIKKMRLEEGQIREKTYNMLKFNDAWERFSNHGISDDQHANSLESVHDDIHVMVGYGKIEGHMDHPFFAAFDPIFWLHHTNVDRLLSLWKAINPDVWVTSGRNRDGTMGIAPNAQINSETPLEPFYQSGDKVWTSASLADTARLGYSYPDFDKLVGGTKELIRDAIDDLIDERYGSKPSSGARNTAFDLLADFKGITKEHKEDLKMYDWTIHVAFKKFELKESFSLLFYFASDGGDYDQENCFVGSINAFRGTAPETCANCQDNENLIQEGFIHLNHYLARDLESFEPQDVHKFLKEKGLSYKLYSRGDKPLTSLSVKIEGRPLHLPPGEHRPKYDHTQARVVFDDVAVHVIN
Result Type: pIC50
# pIC50: negative log10 of molar concentration; output just the value

Response field pIC50 (Tyrosinase (Agaricus bisporus)) for item `O=CN1CCc2cc3c(c4c2[C@H]1Cc1ccccc1-4)OCO3` : 4.13

---

Experimental Protocol: Cytotoxicity against human HEMn-MP assessed as cell viability at 0.01 to 10 uM after 48 hrs by MTT assay
Condition Context: HEMn-MP cells, read-out: Activity
Result Type: viability at 48 h, 10 µM

The compound listed as `O=CN1CCc2cc3c(c4c2[C@H]1Cc1ccccc1-4)OCO3` shows viability at 48 h, 10 µM equal to 90%

---

Experimental Protocol: Cytotoxicity against human fibroblasts assessed as cell viability at 100 uM after 48 hrs by MTT assay
Format: cell-based, Fibroblast
Condition Context: read-out: Activity
Result Type: viability at 48 h, 100 µM (%)
I only need the number, in %, no unit after it.

`O=CN1CCc2cc3c(c4c2[C@H]1Cc1ccccc1-4)OCO3` has a reported viability at 48 h, 100 µM of 70
